Give F > B (fold over background) for every item shown.
experimental-system: T1, MMP-26 catalytic domain, tagged with hexa-histidine (human, UniProt Q9NRE1 90-261)
T1 construct: the forward primer adds Met-Ala before it; also called MMP-26 target protein; Matrilysin-2; not shown: Also any N-terminal residues added by the forward primer (Met-Ala according to our card; the primers were not visible to me)
T1 sequence: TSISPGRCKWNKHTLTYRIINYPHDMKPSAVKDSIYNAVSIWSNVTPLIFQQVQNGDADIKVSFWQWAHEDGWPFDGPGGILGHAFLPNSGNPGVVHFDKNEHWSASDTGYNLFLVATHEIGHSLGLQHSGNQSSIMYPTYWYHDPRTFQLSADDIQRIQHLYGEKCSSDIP
assay-summary: bead-based ELISA, MMP-26 on nickel beads, IgG4 culture supernatant
Response body: numeric value in fold over background, unit text excluded.

Measured F > B (fold over background) of C11 (antibody, human IgG4, V domains shown, whole human IgG4) VH: EVQLLESGGGLVQPGGSLRLSCAASGFTFSEYPMWWVRQAPGKGLEWVSWIYPSGGNTDYADSVKGRFTISRDNSKNTLYLQMNSLRAEDTAVYYCAIPYCSSSSCPLHWGQGTLVTVSS VL: QSELTQPPSASGSPGQSVTISCTGTSSDVGGYNYVSWYQQHPDKAPKLLIYEVTQRPSGVPDRFSGSRSGNTASLTVSGLQAEDEADYYCSSYAGRNNLYVFGPGTKVTVLG : 2.6

Data point: C12 (antibody, V domains shown, whole human IgG4) VH: EVQLLESGGGLVQPGGSLRLSCAASGFTFSAYNMMWVRQAPGKGLEWVSRIYPSGGYTLYADSVKGRFTISRDNSKNTLYLQMNSLRAEDTAVYYCARQKLMIRAVRPFDYWGQGTLVTVSS VL: QSELTQPPSVSVSPAQTASITCSGDKLGDKYACWYQQKPGQSPVLVIYEDTKRPSGIPERFSGSNSGNTATLTISGTQVMDEADYYCQVWDSSTAVFGGGTKLTVLG ; F > B (fold over background) = 1.8

F > B (fold over background) for A10 (antibody, human IgG4, V domains shown, whole human IgG4) VH: EVQLLESGGGLVQPGGSLRLSCAASGFTFSAYRMFWVRQAPGKGLEWVSSIWPSGGTTSYADSVKGRFTISRDNSKNTLYLQMNSLRAEDTAVYYCARDRGYDSSGYFDYWGQGTLVTVSS VL: QSELTQPPSASGTPGQRVTISCSGGSSNIGSNYVSWYQQLPGTAPKLLIYNNNQRPSGVPDRFSGSKSGTSASLAISGLRSEDEADYYCAAWDDSLSSAVFGGGTQLTVLG is 1.84
